These measurements were taken from patent US20240287177A1.

target: recombinant human NKp30 extracellular domain, his-tagged (human) (UniProt O14931); assay: BLI, SEEDbody on anti-human Fc sensors, soluble NKp30, 1:1 fit
Sequence (O14931 19-135): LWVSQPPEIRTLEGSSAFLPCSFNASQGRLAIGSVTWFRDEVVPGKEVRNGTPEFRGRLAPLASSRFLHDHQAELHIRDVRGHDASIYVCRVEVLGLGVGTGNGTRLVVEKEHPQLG
# key: entry, value: pKd
// pKd: -log10(molar conc.)

Before answering, review these 3 worked examples.
VHH1 SEEDbody eff- (bispecific antibody, part only; not given: silenced SEED Fc and cetuximab Fab, V domains shown, not shown: another chain or arm of the molecule; a dimerising Fc or GST; small tags and cut ends) VHH: DVQLQESGGGLVQPGGSLRLSCATSGFTLDDYTIGWVRQAPGKEHEGVSCFSPSDGTTYYADSVKGRFTFSRDNAKNTVYLQMNSLKPEDTAVYYCAASFADGSSWCYDYWGQGTQVTVSS :: 9.57
VHH13 SEEDbody eff- (bispecific antibody, part only; not given: silenced SEED Fc and cetuximab Fab, V domains shown, not shown: another chain or arm of the molecule; a dimerising Fc or GST; small tags and cut ends) VHH: DVQLQESGGGLAQPGGPLRLSCAASGRTFTSDFMGWFRQAPGKEREFVAAIHWSGGSRSYADSVKGRFTISRDNAKDTVYLLMNSLKLEDTAVYYCAAEIRWQTAGWVNLGSWGQGTQVTVSS :: 9.68
VHH4 SEEDbody eff- (bispecific antibody, part only; not given: silenced SEED Fc and cetuximab Fab, V domains shown, not shown: another chain or arm of the molecule; a dimerising Fc or GST; small tags and cut ends) VHH: DVQLQESGGGLVQPGESLRLSCLVSGVTYHFYDITWFRQAPGLEREGVSCISYASGSTKFADSVKGRFTISRDNAKNAVYLQMNSLKPEDTAVYFCAMQGSGSCSDFMSADSVLSWGQGTQVTVSS :: 8.59

response.value for VHH12 SEEDbody eff- (bispecific antibody, part only; not given: silenced SEED Fc and cetuximab Fab, V domains shown, not shown: another chain or arm of the molecule; a dimerising Fc or GST; small tags and cut ends) VHH: DVQLQESGGGLVQAGGSLRLSCAASGRTFSSDFMGWFRQAPGKEREFVAAIHWSGGSRSYADSVKGRFTISRDNAKDTVYLLMNSLKLEDTAVYYCAAEIRWQTTGWANLGSWGQGTQVTVSS (field: pKd) = 9.01
